Recorded values, source patent US5621010A.

- Assay Method Text: Cholesterol-lowering activity in hypercholesteremic rats
- Format: in vivo, Sprague-Dawley male rats
- Measurement Parameters: 30 mg/kg oral, in 0.5% methylcellulose; plasma cholesterol prior to and 5 hrs after administration
Label True when Percent Reduction of Cholesterol is strictly below 70%; otherwise label False.

CC(C)(C)c1cc(CCc2ccccc2NC(=O)NC2CCN(Cc3ccc(F)cc3)CC2)cc(C(C)(C)C)c1O [Example 83]: True
CC(C)(C)c1cc(CCc2ccccc2NC(=O)NC2CCN(Cc3ccccc3)CC2)cc(C(C)(C)C)c1O [Example 35]: True
CN(C(=O)Nc1ccccc1CCc1cc(C(C)(C)C)c(O)c(C(C)(C)C)c1)C1CCN(Cc2ccccc2)CC1 [Example 92]: False

Query: I wonder whether CCCCCCCN(C)C(=O)Nc1ccccc1/C=C/c1cc(C(C)(C)C)c(O)c(C(C)(C)C)c1 [Example 105] has Percent Reduction of Cholesterol below 70%. Can you tell?
Result: True
